test system: HeLa; experiment: Cytotoxicity against human HeLa cells by MTT assay; assay type: functional, cell-based
readout_name: log10 IC50 (log10 of the value in µg/mL)
Use the decimal logarithm of IC50 (µg/mL).

Below, each entry is followed by its recorded log10 IC50 result.
compound	log10 IC50
CC(=O)O[C@@H]1COC(=O)/C1=C/C[C@@H]1[C@@]2(CC[C@@H]3[C@]4(C)CO[C@@H](C)O[C@@H]4CC[C@]31C)CO2	0.85
C[C@@H]1OC[C@@]2(C)[C@H]3CC[C@@]4(CO4)[C@@H](/C=C/C4=CCOC4=O)[C@]3(C)CC[C@H]2O1	0.89
C=C1CC[C@@H]2[C@](C)(CO)[C@H](O)CC[C@@]2(C)[C@@H]1C/C=C1/C(=O)OC[C@H]1O [ANDROGRAPHOLIDE]	1.02

Lab book: log10 IC50 of C=C1CC[C@@H]2[C@]3(C)CO[C@@H](CCC)O[C@@H]3CC[C@@]2(C)[C@@H]1C/C=C1/C(=O)OC[C@H]1O noted as 1.43

Lab book: log10 IC50 of C=C1CC[C@@H]2[C@]3(C)CO[C@@H](CCCCC)O[C@@H]3CC[C@@]2(C)[C@@H]1C/C=C1/C(=O)OC[C@H]1O noted as 0.93

Lab book: log10 IC50 of C=C1CC[C@@H]2[C@]3(C)CO[C@@H](C)O[C@@H]3CC[C@@]2(C)[C@@H]1/C=C/C1=CCOC1=O noted as 1.75

Lab book: log10 IC50 of C=C1CC[C@@H]2[C@](C)(CO)[C@H](O)CC[C@@]2(C)[C@@H]1/C=C/C1=CCOC1=O noted as 2.17

Lab book: log10 IC50 of C=C1CC[C@@H]2[C@]3(C)CO[C@@H](C)O[C@@H]3CC[C@@]2(C)[C@@H]1C/C=C1\C=COC1=O noted as 1.69

Lab book: log10 IC50 of C=C1CC[C@@H]2[C@]3(C)CO[C@@H](c4ccccc4)O[C@@H]3CC[C@@]2(C)[C@@H]1C/C=C1/C(=O)OC[C@H]1O noted as 0.58
